Each recorded value in this set is attributed to patent US10239873B2.

Form field: pIC50 (one value per entry).
# System tested: IKKε (Homo sapiens, UniProt Q14164)
# Sequence (Q14164 1-716): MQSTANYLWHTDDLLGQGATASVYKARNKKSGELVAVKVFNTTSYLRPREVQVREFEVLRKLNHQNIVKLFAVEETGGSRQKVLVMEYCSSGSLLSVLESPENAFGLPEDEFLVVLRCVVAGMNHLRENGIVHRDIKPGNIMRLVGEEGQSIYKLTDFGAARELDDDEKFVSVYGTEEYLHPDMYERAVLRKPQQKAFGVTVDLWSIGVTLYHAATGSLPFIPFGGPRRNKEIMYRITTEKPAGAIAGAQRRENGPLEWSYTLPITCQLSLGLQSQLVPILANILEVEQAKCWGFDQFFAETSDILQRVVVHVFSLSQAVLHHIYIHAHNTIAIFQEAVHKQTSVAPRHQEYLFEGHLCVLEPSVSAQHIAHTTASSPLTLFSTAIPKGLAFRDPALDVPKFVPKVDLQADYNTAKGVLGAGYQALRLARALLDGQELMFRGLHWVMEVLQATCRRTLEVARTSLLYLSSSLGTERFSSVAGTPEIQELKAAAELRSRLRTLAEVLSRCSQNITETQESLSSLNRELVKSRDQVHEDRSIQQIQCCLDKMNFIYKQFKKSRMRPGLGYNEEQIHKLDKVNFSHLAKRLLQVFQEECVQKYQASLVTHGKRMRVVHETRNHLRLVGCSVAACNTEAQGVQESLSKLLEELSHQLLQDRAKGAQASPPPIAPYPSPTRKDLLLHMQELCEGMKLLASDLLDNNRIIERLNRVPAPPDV
pIC50: −log10 of the molar value.
Endpoint: pIC50

INSERT INTO results (molecule, system_tested, reported_relation, measured_value) VALUES
  ('CC1C=C(c2c[nH]c3ncc(-c4ccc(CN5CCN(C)CC5)cc4)cc23)CCN1C(=O)NC1CC1 (centres unmarked)', 'IKKε (Homo sapiens, UniProt Q14164)', '=', 7.85),
  ('CC(C)NC(=O)N1CC=C(c2c[nH]c3ncc(-c4ccc(NC5CCOCC5)cc4)cc23)CC1', 'IKKε (Homo sapiens, UniProt Q14164)', '=', 7.89),
  ('COc1ccc(-c2cnc3[nH]cc(C4=CCN(C)CC4)c3c2)cc1OC', 'IKKε (Homo sapiens, UniProt Q14164)', '<', 5.00),
  ('CC(C)NC(=O)N1CC=C(c2c[nH]c3ncc(-c4ccc(CN5CCN(C)CC5)nc4)cc23)CC1', 'IKKε (Homo sapiens, UniProt Q14164)', '=', 7.29),
  ('CC(C)NC(=O)N1CC=C(c2c[nH]c3ncc(-c4ccc(OC5CCOCC5)cc4)cc23)CC1', 'IKKε (Homo sapiens, UniProt Q14164)', '=', 7.68),
  ('CC(C)NC(=O)N1CC=C(c2c[nH]c3ncc(-c4ccc(CN5CCN(C6CC6)CC5)cc4)cc23)CC1', 'IKKε (Homo sapiens, UniProt Q14164)', '=', 8.18),
  ('CC(C)NC(=O)N1CC=C(c2c[nH]c3ncc(-c4ccc(CN5CCCC5)o4)cc23)CC1', 'IKKε (Homo sapiens, UniProt Q14164)', '=', 5.70),
  ('CN1CC=C(c2c[nH]c3ncc(-c4ccc(CN5CCOCC5)s4)cc23)CC1', 'IKKε (Homo sapiens, UniProt Q14164)', '<', 5.00),
  ('CCCN1CC=C(c2c[nH]c3ncc(-c4ccc(OC)c(OC)c4)cc23)CC1', 'IKKε (Homo sapiens, UniProt Q14164)', '=', 5.29),
  ('CCN1CC=C(c2c[nH]c3ncc(-c4ccc(OC)c(OC)c4)cc23)CC1', 'IKKε (Homo sapiens, UniProt Q14164)', '<', 5.00),
  ('CCCS(=O)(=O)c1ccc(-c2cnc3[nH]cc(C4=CCN(C(=O)NC5CCCC5)CC4)c3c2)cc1', 'IKKε (Homo sapiens, UniProt Q14164)', '=', 6.22),
  ('CCC(CC)NC(=O)N1CC=C(c2c[nH]c3ncc(-c4ccc(CN5CCN(C)CC5)s4)cc23)CC1', 'IKKε (Homo sapiens, UniProt Q14164)', '=', 6.66),
  ('CCN1CCN(Cc2ccc(-c3cnc4[nH]cc(C5=CCN(C(=O)NC(C)C)CC5)c4c3)s2)CC1', 'IKKε (Homo sapiens, UniProt Q14164)', '=', 7.60),
  ('O=C(NC1CC1)N1CC=C(c2c[nH]c3ncc(-c4ccc(CN5CCOCC5)s4)cc23)CC1', 'IKKε (Homo sapiens, UniProt Q14164)', '=', 8.00),
  ('COc1ccc(-c2cnc3[nH]cc(C4=CCN(C(=O)NC5CCCC5)CC4)c3c2)cc1F', 'IKKε (Homo sapiens, UniProt Q14164)', '=', 6.39),
  ('CCC(CC)NC(=O)N1CCC(c2c[nH]c3ncc(-c4ccc(CN5CCOCC5)s4)cc23)=CC1C (centres unmarked)', 'IKKε (Homo sapiens, UniProt Q14164)', '=', 6.89),
  ('COc1ccc(-c2cnc3[nH]cc(C4CCN(C(=O)NC(C)C)C4)c3c2)cc1OC (centres unmarked)', 'IKKε (Homo sapiens, UniProt Q14164)', '=', 5.22),
  ('CC1C=C(c2c[nH]c3ncc(-c4ccc(C(=O)N5CCN(C)CC5)cc4)cc23)CCN1C(=O)NC1CCC1 (centres unmarked)', 'IKKε (Homo sapiens, UniProt Q14164)', '=', 7.66),
  ('CC1CN(C(=O)NC2CCCC2)CC=C1c1c[nH]c2ncc(-c3ccc(CN4CCN(C)CC4)s3)cc12 (centres unmarked)', 'IKKε (Homo sapiens, UniProt Q14164)', '=', 7.48),
  ('CC1C=C(c2c[nH]c3ncc(-c4ccc(CN5CCOCC5)s4)cc23)CCN1C(=O)NC1CC1 (centres unmarked)', 'IKKε (Homo sapiens, UniProt Q14164)', '=', 8.60),
  ('CC(C)NC(=O)N1CC=C(c2c[nH]c3ncc(-c4ccc(F)cc4)cc23)CC1', 'IKKε (Homo sapiens, UniProt Q14164)', '=', 5.17),
  ('CC1C=C(c2c[nH]c3ncc(-c4ccc(C(=O)N5CCN(C)CC5)cc4)cc23)CCN1C(=O)NC1CC1 (centres unmarked)', 'IKKε (Homo sapiens, UniProt Q14164)', '=', 8.00),
  ('CC(C)NC(=O)N1C2C=C(c3c[nH]c4ncc(-c5ccc(CN6CCOCC6)s5)cc34)CC1CC2 (centres unmarked)', 'IKKε (Homo sapiens, UniProt Q14164)', '=', 5.32),
  ('CCC1C=C(c2c[nH]c3ncc(-c4ccc(CN5CCN(C)CC5)s4)cc23)CCN1C(=O)NC(C)C (centres unmarked)', 'IKKε (Homo sapiens, UniProt Q14164)', '=', 7.11),
  ('O=C(c1cccs1)N1CC=C(c2c[nH]c3ncc(Nc4ccc(CN5CCOCC5)cc4)cc23)CC1', 'IKKε (Homo sapiens, UniProt Q14164)', '=', 6.08),
  ('COc1ccc(-c2cnc3[nH]cc(C4=CCN(CC(C)C)CC4)c3c2)cc1OC', 'IKKε (Homo sapiens, UniProt Q14164)', '=', 5.56);

###

Dear all, this message contains pIC50 results, target or system UniProt:Q14164.
pIC50: −log10 of the molar value. Counter-ions that a name gives are not always drawn.
Endpoint: pIC50

INSERT INTO measurements (compound, system_tested, endpoint, reported_relation, measured_value) VALUES
  ('CC1C=C(c2c[nH]c3ncc(-c4ccc(S(C)(=O)=O)cc4)cc23)CCN1C(=O)NC1CCCC1 (stereo not drawn)', 'UniProt:Q14164', 'pIC50', '=', 7.66),
  ('CN1CCN(Cc2ccc(-c3cnc4[nH]cc(C5=CCN(C(=O)NC6CC6)CC5)c4c3)s2)CC1', 'UniProt:Q14164', 'pIC50', '=', 7.92),
  ('CC(C)NC(=O)N1CC=C(c2c[nH]c3ncc(-c4cccc(C(=O)N5CCN(C)CC5)c4)cc23)CC1', 'UniProt:Q14164', 'pIC50', '=', 7.34),
  ('CCS(=O)(=O)c1cccc(-c2cnc3[nH]cc(C4=CCN(C(=O)NC5CCCC5)CC4)c3c2)c1', 'UniProt:Q14164', 'pIC50', '=', 7.08),
  ('CN1CCN(Cc2ccc(-c3cnc4[nH]cc(C5=CCN(C(=O)c6cccs6)CC5)c4c3)s2)CC1', 'UniProt:Q14164', 'pIC50', '=', 7.64),
  ('O=C(NC1CC1)N1CC=C(c2c[nH]c3ncc(-c4ccc(CN5CCNCC5)s4)cc23)CC1 [Example 45, dihydrochloride]', 'UniProt:Q14164', 'pIC50', '=', 7.62),
  ('CC(C)NC(=O)N1CCC(c2c[nH]c3ncc(-c4ccc(CN5CCN(C)CC5)cc4)cc23)=CC1C (stereo not drawn)', 'UniProt:Q14164', 'pIC50', '=', 8.46),
  ('Cc1ccc(-c2cnc3[nH]cc(C4=CCN(C(=O)NC(C)C)CC4)c3c2)cc1', 'UniProt:Q14164', 'pIC50', '=', 6.55),
  ('CCN1CCN(Cc2ccc(-c3cnc4[nH]cc(C5=CCN(C(=O)NC(C)C)CC5)c4c3)cc2)CC1', 'UniProt:Q14164', 'pIC50', '=', 7.70),
  ('CC(C)NC(=O)N1CC=C(c2c[nH]c3ncc(-c4ccc(C(=O)N5CCN(C)CC5)cc4)cc23)CC1', 'UniProt:Q14164', 'pIC50', '=', 7.89),
  ('COc1cccc(-c2cnc3[nH]cc(C4=CCN(C(=O)NC(C)C)CC4)c3c2)c1', 'UniProt:Q14164', 'pIC50', '<', 5.00),
  ('CCCN1CC=C(c2c[nH]c3ncc(-c4ccc(CN5CCOCC5)s4)cc23)CC1', 'UniProt:Q14164', 'pIC50', '=', 5.37),
  ('CC1C=C(c2c[nH]c3ncc(-c4ccc(CN5CCN(C)CC5)s4)cc23)CCN1C(=O)NC1CCC1 (stereo not drawn)', 'UniProt:Q14164', 'pIC50', '=', 7.46),
  ('CCN1CC=C(c2c[nH]c3ncc(-c4ccc(CN5CCOCC5)s4)cc23)CC1', 'UniProt:Q14164', 'pIC50', '=', 5.05),
  ('CC1C=C(c2c[nH]c3ncc(-c4ccc(CN5CCN(C)CC5)s4)cc23)CCN1C(=O)NC1CCCC1 (racemic)', 'UniProt:Q14164', 'pIC50', '=', 8.49);
